# Test system: CNS cell
# method description: Cytotoxicity against human CNS cells after 48 hrs by SRB assay
# Type: functional
Binary label based on GI50 with cut-off 10 µM: below gives T, not below gives F.

| smiles code | category |
| --- | --- |
| O=c1oc(-c2ccccc2F)cc2c1sc1ccccc12 | F |
| COC(=O)c1sc2ccccc2c1C#Cc1ccccc1F | F |
| COc1cccc2c1C(=O)c1c(O)c3c(c(O)c1C2=O)C[C@@](O)(C(=O)CO)C[C@@H]3O[C@H]1C[C@H](N)[C@H](O)[C@H](C)O1 | T |
| COc1ccc2c(c1)sc1c(=O)oc(-c3ccccc3)cc12 | F |
| O=c1oc(-c2ccc(F)cc2)cc2c1sc1ccccc12 | F |

Okay, next one:
Query block: # check: GI50 < 10 µM for `COC(=O)c1sc2ccccc2c1C#Cc1ccc(F)cc1`
Result block: F

* * *

# Tested on: NCI-H460
# method description: Cytotoxicity against human NCI-H460 cells after 48 hrs by SRB assay
# Assay type: functional
# details: NCI-H460, 48 h
Readings of GI50 for the listed compounds

| smiles code | observed |
| --- | --- |
| COC(=O)c1sc2ccccc2c1C#Cc1ccc(OC)cc1 | 103 µM |

Query block: State its GI50 for this compound: `COc1ccc(-c2oc(=O)c3sc4ccccc4c3c2I)cc1`
Result block: > 150 µM

Query block: State its GI50 for this compound: `COC(=O)c1sc2cc(OC)ccc2c1C#Cc1ccc(F)cc1`
Result block: 10.1 µM

Query block: State its GI50 for this compound: `COC(=O)c1sc2ccccc2c1C#Cc1ccccc1`
Result block: 58.9 µM

Query block: State its GI50 for this compound: `COc1ccc2c(c1)sc1c(=O)oc(-c3ccc(F)cc3)cc12`
Result block: 118 µM

Query block: State its GI50 for this compound: `O=c1oc(-c2ccccc2)cc2c1sc1ccccc12`
Result block: > 112 µM

Query block: State its GI50 for this compound: `COC(=O)c1sc2ccccc2c1C#Cc1ccccc1F`
Result block: 30.2 µM

* * *

# Tested on: CNS cell
# method description: Cytotoxicity against human CNS cells after 48 hrs by SRB assay
# Format: functional
Binary label based on GI50 with cut-off 30 µM: below gives y, not below gives n.

Worked set:
| smiles code | category |
| --- | --- |
| COc1ccc2c(c1)sc1c(=O)oc(-c3ccc(F)cc3)cc12 | y |
| COC(=O)c1sc2cc(OC)ccc2c1C#Cc1ccccc1 | n |
| COC(=O)c1sc2cc(OC)ccc2c1C#Cc1ccccc1F | y |
| COc1ccc2c(c1)sc1c(=O)oc(-c3ccccc3F)c(I)c12 | y |

Okay, next one:
Query block: # check: GI50 < 30 µM for `COC(=O)c1sc2ccccc2c1C#Cc1ccccc1`
Result block: n

* * *

# Test system: NCI-H460
# method description: Cytotoxicity against human NCI-H460 cells after 48 hrs by SRB assay
# Assay type: functional
# details: NCI-H460, 48 h
observed property: GI50 (µM)
Provide the reading as a plain figure in µM.

| smiles code | observed |
| --- | --- |
| COC(=O)c1sc2cc(OC)ccc2c1C#Cc1ccccc1 | 42.3 |

Query block: Enter measured GI50, system NCI-H460, for the compound shown: `COc1cccc2c1C(=O)c1c(O)c3c(c(O)c1C2=O)C[C@@](O)(C(=O)CO)C[C@@H]3O[C@H]1C[C@H](N)[C@H](O)[C@H](C)O1`
Result block: 0.094

The measured values listed here are drawn from ChEMBL document CHEMBL1158368.
